# procedure summary: Drug level in Sprague-Dawley rat heart at 50 mg/kg, ip after 4 hrs
# Type: ADME, organism-based
# Set-up: dose 50 mg/kg, route intraperitoneal
# experimental setup: read-out: Drug uptake
observable: concentration at 4 h
Answer as a quantity: numeral, then unit.

Query string: Query concentration at 4 h for C=CC1CNC(=S)O1 (stereo unspecified)
Result string: 22300 ng/g

* * *

# procedure summary: Drug level in Sprague-Dawley rat brain at 50 mg/kg, ip after 4 hrs
# Type: ADME, organism-based
# Parameters: dose 50 mg/kg, route intraperitoneal
# experimental setup: read-out: Drug uptake
observable: concentration at 4 h (ng/g)
Note: unit ng/g is implicit; provide only the numeric part.

Query string: Query concentration at 4 h for C=CC1CNC(=S)O1 (stereo unspecified)
Result string: 21000

Values from ChEMBL document CHEMBL1151107
